Taken from patent US20230416365A1.

Biological target: T1, N(A2B2)A-avi-His (biotinylated at the avi tag)
T1 construct: also called biotinylated N(A2B2)A-avi-His
T1 chain: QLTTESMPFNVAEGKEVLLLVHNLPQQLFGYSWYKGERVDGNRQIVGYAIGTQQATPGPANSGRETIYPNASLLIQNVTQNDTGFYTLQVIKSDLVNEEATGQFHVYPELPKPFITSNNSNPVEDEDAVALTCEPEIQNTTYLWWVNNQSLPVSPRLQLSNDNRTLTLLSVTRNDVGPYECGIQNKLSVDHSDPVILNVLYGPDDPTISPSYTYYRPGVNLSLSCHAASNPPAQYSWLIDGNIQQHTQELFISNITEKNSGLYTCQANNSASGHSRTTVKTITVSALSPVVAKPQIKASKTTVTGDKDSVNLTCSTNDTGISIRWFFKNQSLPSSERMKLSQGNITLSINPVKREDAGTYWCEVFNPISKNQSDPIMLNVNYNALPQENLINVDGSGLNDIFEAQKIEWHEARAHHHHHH
Test: SPR off-rate, ProteOn, antigen on NLC chip, Fab in bacterial supernatant
measured_parameter: koff (s⁻¹)
API: value field is a number in s⁻¹; no unit string.

Some binders with known koff results, for comparison:
| binder | koff [s⁻¹] |
| --- | --- |
| P005.103 Fab (Fab, V domains shown, Fab from E. coli) VH: EVQLLESGGGLVQPGGSLRLSCAASGFTFTDYYMNWVRQAPGKGLEWLGFIGNKANAYTTEYSASVKGRFTISRDKSKNTLYLQMNSLRAEDTATYYCTRDRGIRFYFDYWGQGTTVTVSS VL: EIVLTQSPATLSLSPGERATLSCRASSSVTYIHWYQQKPGQAPRSWIYATSNLASGIPARFSGSGSGTDFTLTISSLEPEDFAVYYCQHWSSISPTFGQGTKLEIK | 5.37e-05 |
| P002.139 Fab (Fab, V domains shown, Fab from E. coli) VH: EVQLLESGGGLVQPGGSLRLSCAASGFYFTDYAMNWVRQAPGKGLEWLGVISNKANAYTTEYSASVKGRFTISRDKSKNTLYLQMNSLRAEDTATYYCTRDRGLRFYFDYWGQGTTVTVSS VL: EIVLTQSPATLSLSPGERATLSCHASSSVTYIHWYQQKPGQAPRSWIYATSNLASGIPARFSGSGSGTDFTLTISSLEPEDFAVYYCQHWSSKPPTFGQGTKLEIK | 6.47e-05 |
| P005.097 Fab (Fab, V domains shown, Fab from E. coli) VH: EVQLLESGGGLVQPGGSLRLSCAASGFTFTDYYMNWVRQAPGKGLEWLGFIGNKANAYTTEYSASVKGRFTISRDKSKNTLYLQMNSLRAEDTATYYCTRDRGLRFSFDYWGQGTTVTVSS VL: EIVLTQSPATLSLSPGERATLSCRASSSVTYIHWYQQKPGQAPRSWIYATSNLASGIPARFSGSGSGTDFTLTISSLEPEDFAVYYCQHWSSQPPTFGQGTKLEIK | 8.87e-05 |

Ask: // koff lookup, key: P006.038 Fab (Fab, V domains shown, Fab from E. coli) VH: EVQLLESGGGLVQPGGSLRLSCAASGFTFTDYYMNWVRQAPGKGLEWLGFIGNKANAYTTEYSASVKGRFTISRDKSKNTLYLQMNSLRAEDTATYYCTRDRGIRFGFDYWGQGTTVTVSS VL: EIVLTQSPATLSLSPGERATLSCRASSSVTYIHWYQQKPGQAPRSWIYATSNLASGIPARFSGSGSGTDFTLTISSLEPEDFAVYYCQHWSSVPPTFGQGTKLEIK
Result: 7.41e-05
